- assayMethodText: Staining of lysed whole blood, fluorescence by flow cytometry
- Assay type: cell-based, human
- testContext: human, white blood cells; 0.8 uM, t=0
metricName: percentage of dead (leaky) cells at 0 h, 0.8 µM

Fill blank: measured percentage of dead (leaky) cells at 0 h, 0.8 µM of the compound CCCC(=O)Oc1ccc2c3c(ccc2c1)C1(OS(=O)(=O)c2ccccc21)c1ccc2cc(OC(=O)CCC)ccc2c1O3 [Compound 14, Vita Blue dibutyrate] is ____.
14%

====

- assayMethodText: Fluorescence emission maximum and quantum yield
- Type: physicochemical
- testContext: pH 9.5; dianionic form
metricName: Quantum Yield

Fill blank: measured Quantum Yield of the compound CN(C)c1ccc2c(-c3ccccc3C(=O)O)c3ccc(=O)cc-3oc2c1 [Compound 3, Rhodol] is ____.
0.20

Fill blank: measured Quantum Yield of the compound O=C(O)c1ccccc1-c1c2c3ccccc3c(=O)c(Br)c-2oc2c(Br)c(O)c3ccccc3c12 [Compound 5, 1,2,7,8-Dibenzo-4.5-dibromofluorescein] is ____.
0.05

Fill blank: measured Quantum Yield of the compound O=C(O)c1ccccc1-c1c2ccc(=O)cc-2oc2cc(O)ccc12 [Compound 1, fluorescein] is ____.
0.92

Fill blank: measured Quantum Yield of the compound O=C(O)c1ccccc1-c1c2ccc3cc(O)ccc3c2oc2c1ccc1cc(=O)ccc12 [Compound 7, naphthofluorescein] is ____.
0.14

Fill blank: measured Quantum Yield of the compound O=c1ccc2c(ccc3c(-c4ccccc4S(=O)(=O)O)c4ccc5cc(O)ccc5c4oc32)c1 [Compound 9] is ____.
0.15

Fill blank: measured Quantum Yield of the compound O=c1ccc2c(-c3ccccc3S(=O)(=O)O)c3ccc(O)cc3oc-2c1 [Compound 2, Sulfonefluorescein] is ____.
0.92

Fill blank: measured Quantum Yield of the compound O=c1cc2oc3cc(O)c4ccccc4c3c(-c3ccccc3S(=O)(=O)O)c-2c2ccccc12 [Compound 6, 1,2,7,8-Dibenzosulfonefluorescein] is ____.
0.48

Fill blank: measured Quantum Yield of the compound O=C(O)c1ccccc1-c1c2c3ccccc3c(=O)cc-2oc2cc(O)c3ccccc3c12 [Compound 4, 1,2,7,8 dibenzofluorescein] is ____.
0.24

Fill blank: measured Quantum Yield of the compound O=C(O)c1ccccc1-c1c2ccc3c(Br)c(O)ccc3c2oc2c1ccc1c(Br)c(=O)ccc12 [Compound 8, 4,10 Dibromonaphthofluorescein] is ____.
0.05

Values were extracted from patent US5066580A.
